System: HOP-62 NSCLC
Assay: NCI-60 one-dose screen, 48 h
Details: 10 µM unless noted
The panel holds about 83,000 compounds, 20% with a hit somewhere; the sample as a whole holds those more often. The source made the active and inactive calls. How the source made its calls: active means growth percent below 10; inactive means the rest.
Possible outcomes: active, inactive

molecule | classification
CCOC(=O)C1C(=O)NC(C(=O)OCC)(C(=O)OCC)C1CC (stereo not given) | inactive
CCC(C)C1NC(=O)C(CCNCS(=O)(=O)O)NC(=O)C(NC(=O)C(CCNCS(=O)(=O)O)NC(=O)C(NC(=O)C(CCNCS(=O)(=O)O)NC(=O)CCCCC(C)C)C(C)O)CCNC(=O)C(C(C)O)NC(=O)C(CCNCS(=O)(=O)O)NC(=O)C(CCNCS(=O)(=O)O)NC(=O)C(C(C)CC)NC1=O (stereo not given) | inactive
Cc1ccc2nc(-c3ccc(N(C)C)c(Br)c3)cn2c1 | inactive
COc1cccc(-c2nc(-c3ccc(N)cc3)co2)c1 | inactive
Cc1ccc(C(NC(=O)c2ccccc2)c2ccc3cccnc3c2O)cc1 (stereo not given) | inactive
CC1c2ccccc2-c2ccccc2N1C (stereo not given) | inactive
COc1cc(C2CC(C3C(=O)N(C)C(=O)N(C)C3=O)=NN2C=O)cc(OC)c1OC (stereo not given) | inactive
Cc1ccc(OCC(=O)Nc2ccc(Oc3ccccc3)cc2)c([N+](=O)[O-])n1 | inactive
O=C(/C=C/c1ccc([N+](=O)[O-])cc1)c1ccc2c3c(cccc13)CC2 | inactive
CC[n+]1c(/C=C/c2ccc(N3CCCC3)cc2)cccc1/C=C/c1ccc(N2CCCC2)cc1 | active
CCN(CC)c1ccc(C(=C2C=CC(=[N+](CC)Cc3cccc(S(=O)(=O)O)c3)C=C2)c2ccc(N(CC)Cc3cccc(S(=O)(=O)O)c3)cc2)cc1 | active
COc1ccc(-c2cnc(SCC(=O)Nc3ccc(-c4nc5ccccc5s4)cc3)n2-c2ccc(OC)cc2)cc1 | inactive
O=C1C=CC(=O)N1c1ccccc1N1C(=O)C=CC1=O | inactive
O=c1sc2ncnc3ncn1c32 | inactive
COc1ccc2c(c1)C(=Nc1cc(OC)c(OC)c(OC)c1)C(=O)N2 | inactive
CCOc1cc(CCNS(=O)(=O)c2ccc(C)cc2)c(C(C)=O)cc1OCC | inactive
COc1cnc2c(c1)C(=O)c1c-2n(CCCN2CCCC2)c(=O)c2cc(F)ccc12 | active
COc1ccc2cc(C3=CC(=O)CCC3)ccc2c1 | inactive
c1ccc(-c2n(Cc3ccc4ccccc4c3)cc[n+]2Cc2ccc3ccccc3c2)cc1 | active
c1ccc2nc(N/N=C3\CCCCC3C3CCCCC3)ccc2c1 (stereo not given) | active
